Entries annotated with measured IC50
# Study system: hERG potassium channels (Homo sapiens (Human), UniProt Q12809)
# Sequence (Q12809 whole entry): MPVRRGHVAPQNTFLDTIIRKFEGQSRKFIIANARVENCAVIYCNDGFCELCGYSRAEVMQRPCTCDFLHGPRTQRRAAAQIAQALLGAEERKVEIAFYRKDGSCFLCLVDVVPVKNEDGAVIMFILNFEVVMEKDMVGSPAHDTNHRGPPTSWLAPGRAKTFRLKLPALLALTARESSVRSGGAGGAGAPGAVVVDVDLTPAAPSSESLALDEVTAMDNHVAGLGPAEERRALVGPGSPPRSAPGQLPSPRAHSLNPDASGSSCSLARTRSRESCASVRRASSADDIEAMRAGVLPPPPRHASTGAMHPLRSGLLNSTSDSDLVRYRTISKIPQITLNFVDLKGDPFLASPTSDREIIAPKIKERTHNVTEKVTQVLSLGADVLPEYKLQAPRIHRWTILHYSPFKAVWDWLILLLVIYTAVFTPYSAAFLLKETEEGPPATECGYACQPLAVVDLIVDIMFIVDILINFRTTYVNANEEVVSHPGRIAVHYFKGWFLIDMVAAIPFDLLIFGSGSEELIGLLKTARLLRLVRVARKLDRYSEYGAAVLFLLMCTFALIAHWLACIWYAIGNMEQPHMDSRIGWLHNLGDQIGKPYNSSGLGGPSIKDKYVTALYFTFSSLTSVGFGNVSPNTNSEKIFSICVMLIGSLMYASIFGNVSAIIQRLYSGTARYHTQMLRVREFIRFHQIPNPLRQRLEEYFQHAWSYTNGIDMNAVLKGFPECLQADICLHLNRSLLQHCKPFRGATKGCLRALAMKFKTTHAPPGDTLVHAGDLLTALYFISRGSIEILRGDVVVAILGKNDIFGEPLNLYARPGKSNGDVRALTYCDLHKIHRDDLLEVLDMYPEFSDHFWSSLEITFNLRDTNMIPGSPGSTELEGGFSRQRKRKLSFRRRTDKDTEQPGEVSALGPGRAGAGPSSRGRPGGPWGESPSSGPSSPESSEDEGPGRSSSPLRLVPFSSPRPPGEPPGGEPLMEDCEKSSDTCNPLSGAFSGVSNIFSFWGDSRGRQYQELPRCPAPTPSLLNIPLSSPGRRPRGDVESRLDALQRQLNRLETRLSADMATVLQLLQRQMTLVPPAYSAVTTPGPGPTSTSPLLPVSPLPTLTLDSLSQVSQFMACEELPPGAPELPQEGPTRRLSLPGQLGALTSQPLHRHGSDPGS
# Assay protocol: hERG assay, automated patch clamp (SyncroPatch 384PE)
# Assay type: cell-based
# Measurement setup: whole cell hERG currents

{"Compound": "Cc1ccc(C)c(OCCCC(C)(C)C(=O)NC2CCCOc3c2nn(-c2ccccc2Cl)c3-c2ccc(Cl)cc2)c1 (centres unmarked)", "IC50": "> 30 µM"}
{"Compound": "O=S(=O)(NC1CCCOc2c1nn(-c1ccccc1Cl)c2-c1ccc(Cl)cc1)c1ccc(Cl)cc1 (centres unmarked)", "IC50": "5.39 µM"}

----------
# Study system: UniProt P05177
# Sequence (P05177 whole entry): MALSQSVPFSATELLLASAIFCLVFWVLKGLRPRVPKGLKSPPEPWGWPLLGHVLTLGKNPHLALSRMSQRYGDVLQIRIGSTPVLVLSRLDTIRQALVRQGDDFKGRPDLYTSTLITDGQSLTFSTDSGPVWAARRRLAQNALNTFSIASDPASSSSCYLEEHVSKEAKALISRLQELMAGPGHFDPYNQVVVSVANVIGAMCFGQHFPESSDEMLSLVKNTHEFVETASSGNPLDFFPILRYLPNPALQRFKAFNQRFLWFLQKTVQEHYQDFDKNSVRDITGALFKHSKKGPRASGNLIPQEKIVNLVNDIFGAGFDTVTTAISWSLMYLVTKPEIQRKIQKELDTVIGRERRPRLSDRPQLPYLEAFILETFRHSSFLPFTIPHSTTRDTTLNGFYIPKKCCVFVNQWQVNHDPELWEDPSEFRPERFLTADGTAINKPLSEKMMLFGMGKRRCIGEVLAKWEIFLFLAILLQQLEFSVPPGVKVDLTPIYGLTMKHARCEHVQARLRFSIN
# Assay protocol: CYP inhibition in human liver microsomes
# Type: in vitro ADME
# Measurement setup: human liver microsomes, isozyme order of b227; read-out: IC50 (μM) CYP 1A2

{"Compound": "Cc1ccc(C)c(OCCCC(C)(C)C(=O)NC2CCCOc3c2nn(-c2ccccc2Cl)c3-c2ccc(Cl)cc2)c1 (stereo not shown) [BNS822]", "Study system": "UniProt P05177", "IC50": "> 50 µM"}

----------
# Assay protocol: Pharmacokinetics after oral and IV dosing
# Type: in vivo, C57BL/6J mice
# Measurement setup: male, C57BL/6J, mouse, plasma, po, 20 mg/kg, oral administration of 10 and 20 mg/kg (range over both doses), C57BL/6J male mice

{"Compound": "Cc1ccc(C)c(OCCCC(C)(C)C(=O)NC2CCCOc3c2nn(-c2ccccc2Cl)c3-c2ccc(Cl)cc2)c1 (stereo not shown)", "Cmax": "0.283 to 0.811 µg/mL"}

----------
# Tested on: P-gp (MDR1, ABCB1)
# Assay protocol: MDR1-MDCK II cell permeation assay (bi-directional permeability, P-gp efflux)
# Format: in vitro ADME
# Measurement setup: dog, MDCK-MDR1, pH 7.4; 2 μM, A to B, 2.5 hours

{"Compound": "Cc1ccc(C)c(OCCCC(C)(C)C(=O)NC2CCCOc3c2nn(-c2ccccc2Cl)c3-c2ccc(Cl)cc2)c1 (stereo not shown) [BNS822]", "Study system": "P-gp (MDR1, ABCB1)", "Relation qualifier": "<", "Papp at 2.5 h, 2 μM [×10⁻⁶ cm/s]": 0.02}
{"Compound": "CS(=O)(=O)N1CCC(C(=O)NC2CCCOc3c2nn(-c2ccccc2Cl)c3-c2ccc(Cl)cc2)CC1 (stereo not shown) [BNS815]", "Study system": "P-gp (MDR1, ABCB1)", "Relation qualifier": "=", "Papp at 2.5 h, 2 μM [×10⁻⁶ cm/s]": 10.1}
{"Compound": "CC(C)(Oc1ccc(C(=O)c2ccc(Cl)cc2)cc1)C(=O)NC1CCCOc2c1nn(-c1ccccc1Cl)c2-c1ccc(Cl)cc1 (stereo not shown) [BNS823]", "Study system": "P-gp (MDR1, ABCB1)", "Relation qualifier": "<", "Papp at 2.5 h, 2 μM [×10⁻⁶ cm/s]": 0.003}
{"Compound": "CCOC(=O)N1CCC(C(=O)NC2CCCOc3c2nn(-c2ccccc2Cl)c3-c2ccc(Cl)cc2)CC1 (stereo not shown) [BNS816]", "Study system": "P-gp (MDR1, ABCB1)", "Relation qualifier": "=", "Papp at 2.5 h, 2 μM [×10⁻⁶ cm/s]": 6.99}
{"Compound": "O=C(NC1CCCOc2c1nn(-c1ccccc1Cl)c2-c1ccc(Cl)cc1)c1cnccn1 (stereo not shown) [BNS805]", "Study system": "P-gp (MDR1, ABCB1)", "Relation qualifier": "=", "Papp at 2.5 h, 2 μM [×10⁻⁶ cm/s]": 4.93}
{"Compound": "O=C(NC1CCCOc2c1nn(-c1ccccc1Cl)c2-c1ccc(Cl)cc1)c1cccnc1 (stereo not shown) [BNS803]", "Study system": "P-gp (MDR1, ABCB1)", "Relation qualifier": "=", "Papp at 2.5 h, 2 μM [×10⁻⁶ cm/s]": 13.2}
{"Compound": "O=C(NC1CCCOc2c1nn(-c1ccccc1Cl)c2-c1ccc(Cl)cc1)C1CCN(C(=O)c2cccnc2)CC1 (stereo not shown) [BNS817]", "Study system": "P-gp (MDR1, ABCB1)", "Relation qualifier": "=", "Papp at 2.5 h, 2 μM [×10⁻⁶ cm/s]": 8.09}
